Experiment: in vivo
Design: species or system BALB/C nu/nu mice
Conditions: BALB/C nu/nu, mouse, iv, 40 pmol, total radioactivity, Muscle uptake
Starred links: 1 amine or outer side, 2 acyl side, 3 side chain; linkers in the order of their positions; H or OH if unused. Non-standard residues stand in square brackets, D forms with d. Residues, ends and D or L forms follow the SMILES beside them. *: point of attachment. DOTAGA = O=C(O)CN1CCN(CC(=O)O)CCN(C(CCC(=O)*)C(=O)O)CCN(CC(=O)O)CC1; Sta = CC(C)C[C@H](N)[C@@H](O)CC(=O)O; X1 = O=C(CN1CCC(N[*:1])CC1)[*:2]; Sar = CNCC(=O)O
reported.metric: tissue uptake at 4 h (%ID/g)

{"molecule": "CC(C)C[C@H](NC(=O)C[C@H](O)[C@H](CC(C)C)NC(=O)[C@H](Cc1c[nH]cn1)NC(=O)CN(C)C(=O)[C@@H](NC(=O)[C@H](C)NC(=O)[C@H](Cc1c[nH]c2ccccc12)NC(=O)[C@H](CCC(N)=O)NC(=O)[C@@H](Cc1ccccc1)NC(=O)CN1CCC(NC(=O)COCCOCCNC(=O)CCC(C(=O)O)N2CCN(CC(=O)O)CCN(CC(=O)O)CCN(CC(=O)O)CC2)CC1)C(C)C)C(N)=O (stereo partly shown) [[^111In]In-AU-RM26-M2, metal not drawn]", "quantitative.readout": 0.02}
{"molecule": "CC(C)C[C@H](NC(=O)C[C@H](O)[C@H](CC(C)C)NC(=O)[C@H](Cc1c[nH]cn1)NC(=O)CN(C)C(=O)[C@@H](NC(=O)[C@H](C)NC(=O)[C@H](Cc1c[nH]c2ccccc12)NC(=O)[C@H](CCC(N)=O)NC(=O)[C@@H](Cc1ccccc1)NC(=O)[C@H](CCCNC(=N)N)NC(=O)COCCOCCNC(=O)CCC(C(=O)O)N1CCN(CC(=O)O)CCN(CC(=O)O)CCN(CC(=O)O)CC1)C(C)C)C(N)=O (stereo partly shown) [[^111In]In-AU-RM26-M3, metal not drawn]", "quantitative.readout": 0.03}
{"molecule": "CC(C)C[C@H](NC(=O)C[C@H](O)[C@H](CC(C)C)NC(=O)[C@H](Cc1c[nH]cn1)NC(=O)CN(C)C(=O)[C@@H](NC(=O)[C@H](C)NC(=O)[C@H](Cc1c[nH]c2ccccc12)NC(=O)[C@H](CCC(N)=O)NC(=O)[C@@H](Cc1ccccc1)NC(=O)COCCOCCNC(=O)CCC(C(=O)O)N1CCN(CC(=O)O)CCN(CC(=O)O)CCN(CC(=O)O)CC1)C(C)C)C(N)=O (stereo partly shown) [[^111In]In-AU-RM26-M1, [^111In]In-DOTAGA-PEG2-[Sar^11]RM26, metal not drawn, reference compound]", "quantitative.readout": 0.04}
{"molecule": "CC(C)C[C@H](NC(=O)C[C@H](O)[C@H](CC(C)C)NC(=O)[C@H](Cc1c[nH]cn1)NC(=O)CN(C)C(=O)[C@@H](NC(=O)[C@H](C)NC(=O)[C@H](Cc1c[nH]c2ccccc12)NC(=O)[C@H](CCC(N)=O)NC(=O)[C@@H](Cc1ccccc1)NC(=O)CN1CCC(NC(=O)[C@H](CCCNC(=N)N)NC(=O)[C@H](CCCNC(=N)N)NC(=O)CCC(C(=O)O)N2CCN(CC(=O)O)CCN(CC(=O)O)CCN(CC(=O)O)CC2)CC1)C(C)C)C(N)=O (stereo partly drawn) [[^111In]In-AU-RM26-M4, metal not drawn] ({DOTAGA}-RR[X1][dF]QWAV[Sar]H[Sta]L-NH2)", "quantitative.readout": 0.06}
